Recorded final OD630 for the following molecules
tested on: Klebsiella pneumoniae ATCC 13882; experiment: final OD630 (growth) after 24 h; higher = more bacterial growth; extreme values may be limits of the assay; details: 0.1 mM
Counter-ions that a name gives are not always drawn.
Number only, please.

Below: 5 molecules and their reported final OD630.
>  <MOLECULE>
c1c[nH]cn1

>  <STUDY_TARGET>
Klebsiella pneumoniae ATCC 13882

>  <final OD630>
0.423

$$$$
>  <MOLECULE>
CNC(=O)NC

>  <STUDY_TARGET>
Klebsiella pneumoniae ATCC 13882

>  <final OD630>
0.502

$$$$
>  <MOLECULE>
O=[N+]([O-])C(Br)(CO)CO

>  <STUDY_TARGET>
Klebsiella pneumoniae ATCC 13882

>  <final OD630>
0

$$$$
>  <MOLECULE>
COC(=O)[C@@H](N)CS [L-cysteine methyl ester hydrochloride]

>  <STUDY_TARGET>
Klebsiella pneumoniae ATCC 13882

>  <final OD630>
0.457

$$$$
>  <MOLECULE>
Oc1ccc(Cl)cc1

>  <STUDY_TARGET>
Klebsiella pneumoniae ATCC 13882

>  <final OD630>
0.42

$$$$

Prompt: In one line, give reported final OD630 of the entry `O=C(O)C(=O)O` .
Response: 0.435

Prompt: Return final OD630 (reported value) for this molecule: NC(=O)NO [Hydroxyurea]
Response: 0.483

Prompt: Determine its reported final OD630: `CN1CC(=O)NC1=N`
Response: 0.505

Prompt: Fill in reported final OD630 for this entry: `N[C@@H](CS)C(=O)O`
Response: 0.431

Prompt: // Input: `C=CCNC(N)=S` . Output its final OD630 only.
Response: 0.417

Prompt: Dear colleague, please send me the reported final OD630 for [F-].[Na+] [Sodium flouride] when you can.
Response: 0.408

Prompt: Supply recorded final OD630 for N=C(N)N [Guanidine hydrochloride] here.
Response: 0.498

Prompt: Return final OD630 (reported value) for this molecule: `NS(=O)(=O)O`
Response: 0.506

Prompt: Please list final OD630 recorded for the molecule O.O.O.O.O.O.O.O=S(=O)([O-])[O-].[Mg+2] [Magnesium sulfate]
Response: 0.553

Prompt: Dear colleague, please send me the reported final OD630 for CC(O)(P(=O)(O)O)P(=O)(O)O [Etidronic acid monohydrate] when you can.
Response: 0.432
